system: K562; assay: Cytotoxicity against human K562 cells by Alamar blue assay; format: functional, cell-based
Quantity Kind: IC50 (µM)

Sample Smiles | Quantity Kind | Unit | Bound Type | Assay Result
CC(C)[C@@H](C)[C@H](C)C[C@@](C)(O)C1=CC[C@H]2[C@@H]3CC=C4C[C@@H](O)CC[C@]4(C)[C@H]3[C@H](O)C[C@]12C | IC50 | µM | = | 12.7
COc1cccc2c1C(=O)c1c(O)c3c(c(O)c1C2=O)C[C@@](O)(C(=O)CO)C[C@@H]3O[C@H]1C[C@H](N)[C@H](O)[C@H](C)O1 | IC50 | µM | = | 0.94
CC(C)[C@@H](C)[C@@]1(C)C[C@@H]1[C@@H](C)[C@H]1CC[C@H]2[C@@H]3[C@@H](O)C=C4C[C@@H](O)CC[C@]4(C)[C@@]3(O)[C@H](O)C[C@]12C | IC50 | µM | > | 40
CC(C)[C@@H](C)[C@@]1(C)C[C@@H]1[C@@H](C)[C@H]1CC[C@H]2[C@H]3[C@H]([C@H](O)[C@H](O)[C@]12C)[C@@]1(C)CC[C@H](O)CC1=C[C@@H]3O | IC50 | µM | > | 40
CC(C)[C@@H](C)[C@@]1(C)C[C@@H]1[C@@H](C)[C@H]1CC[C@H]2[C@H]3[C@H]([C@H](O)C[C@]12C)[C@@]1(C)CC[C@H](O)CC1=C[C@@H]3O | IC50 | µM | > | 40

----------
Each entry below lists one item and its recorded pIC50 value.
test: Cytotoxicity against human DLD1 cells by Alamar blue assay; type: functional, cell-based; details: DLD-1
pIC50: −log10 of the molar value.

Compound | pIC50
CC(C)[C@@H](C)[C@H](C)C[C@@](C)(O)C1=CC[C@H]2[C@@H]3CC=C4C[C@@H](O)CC[C@]4(C)[C@H]3[C@H](O)C[C@]12C | < 4.40
CC(C)[C@@H](C)[C@@]1(C)C[C@@H]1[C@@H](C)[C@H]1CC[C@H]2[C@@H]3[C@@H](O)C=C4C[C@@H](O)CC[C@]4(C)[C@@]3(O)[C@H](O)C[C@]12C | < 4.40
CC(C)[C@@H](C)[C@@]1(C)C[C@@H]1[C@@H](C)[C@H]1CC[C@H]2[C@H]3[C@H]([C@H](O)[C@H](O)[C@]12C)[C@@]1(C)CC[C@H](O)CC1=C[C@@H]3O | < 4.40
COc1cccc2c1C(=O)c1c(O)c3c(c(O)c1C2=O)C[C@@](O)(C(=O)CO)C[C@@H]3O[C@H]1C[C@H](N)[C@H](O)[C@H](C)O1 [DOXORUBICIN] | 5.56
CC(C)[C@@H](C)[C@@]1(C)C[C@@H]1[C@@H](C)[C@H]1CC[C@H]2[C@H]3[C@H]([C@H](O)C[C@]12C)[C@@]1(C)CC[C@H](O)CC1=C[C@@H]3O | < 4.40
